TARGET_OR_TEST_SYSTEM: JAK2 (Homo sapiens)
Construct: endogenous in cells
Sequence (O60674 whole entry): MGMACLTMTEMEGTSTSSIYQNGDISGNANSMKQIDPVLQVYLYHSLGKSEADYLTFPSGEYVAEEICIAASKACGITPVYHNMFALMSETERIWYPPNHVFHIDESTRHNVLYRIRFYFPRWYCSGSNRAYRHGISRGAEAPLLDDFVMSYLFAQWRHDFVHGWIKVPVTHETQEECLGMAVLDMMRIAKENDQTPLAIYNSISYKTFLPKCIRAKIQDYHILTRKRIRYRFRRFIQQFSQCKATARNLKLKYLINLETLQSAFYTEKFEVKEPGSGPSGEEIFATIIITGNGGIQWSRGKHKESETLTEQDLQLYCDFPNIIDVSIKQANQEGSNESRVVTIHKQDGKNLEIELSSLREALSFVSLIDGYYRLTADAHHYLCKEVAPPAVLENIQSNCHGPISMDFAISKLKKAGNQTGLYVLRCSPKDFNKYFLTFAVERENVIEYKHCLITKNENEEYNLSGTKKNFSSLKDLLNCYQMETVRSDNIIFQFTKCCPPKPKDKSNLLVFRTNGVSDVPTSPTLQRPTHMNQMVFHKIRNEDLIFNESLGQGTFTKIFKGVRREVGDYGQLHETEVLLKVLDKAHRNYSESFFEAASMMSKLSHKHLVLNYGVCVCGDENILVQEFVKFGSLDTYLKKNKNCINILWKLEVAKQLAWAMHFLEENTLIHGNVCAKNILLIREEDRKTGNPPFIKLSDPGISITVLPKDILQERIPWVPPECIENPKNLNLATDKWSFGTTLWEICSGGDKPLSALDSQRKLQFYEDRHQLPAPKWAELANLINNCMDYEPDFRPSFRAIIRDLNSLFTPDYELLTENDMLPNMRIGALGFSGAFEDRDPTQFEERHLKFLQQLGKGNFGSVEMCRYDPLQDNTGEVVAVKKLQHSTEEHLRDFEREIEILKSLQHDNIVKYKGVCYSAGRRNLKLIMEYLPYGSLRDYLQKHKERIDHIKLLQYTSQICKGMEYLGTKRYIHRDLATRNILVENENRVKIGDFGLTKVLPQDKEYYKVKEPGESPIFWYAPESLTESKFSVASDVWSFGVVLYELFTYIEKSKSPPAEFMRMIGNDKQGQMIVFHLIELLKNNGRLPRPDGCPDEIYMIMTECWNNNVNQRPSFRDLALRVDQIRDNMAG
TEST_METHOD_NOTES: JAK2 EPO-TF1/pSTAT5 cell-based assay (Cellomics ArrayScan HCS)
TEST_SETTINGS: TF-1 cells, EPO 1.6 U/mL stimulated, n=4; read-out: relative IC50, inhibition of pSTAT5
REPORTED_METRIC: pIC50
Please report pIC50 as the negative decimal logarithm of the molar concentration, giving only the number.

// query Query the reported pIC50 for JAK2 (Homo sapiens); item: Cc1cc(Nc2cc(CN3CCOCC3)c3nc(C)c(Cc4ccc(Cl)cc4F)n3n2)n[nH]1
// result 7.48
